B1: minF1; a variant is named by its letters at N, in order (parent)
chain: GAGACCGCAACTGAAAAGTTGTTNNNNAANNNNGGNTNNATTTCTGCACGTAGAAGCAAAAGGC

Variants of: B1
EXPERIMENTAL PROTOCOL: fraction ligated after 30 min (ligated reads / total reads); higher = more ligase activity
CONDITIONS USED: with F1*subA RNA substrate (template-directed ligation), 42 °C
Rule: fraction ligated of 0.002 or more gives label 1; anything lower gives label 0.

Query: Determine whether this variant has fraction ligated no lower than 0.002: ATAATGGAGTA
Response: label 1

Query: Determine whether this variant has fraction ligated no lower than 0.002: TAGATGGTGTG
Response: label 1

Query: Determine whether this variant has fraction ligated no lower than 0.002: TAGATGATGTA T23A
Response: label 1

Query: Determine whether this variant has fraction ligated no lower than 0.002: ATCAAATGGGT A28G G35T T37G A40T
Response: label 0

Query: Determine whether this variant has fraction ligated no lower than 0.002: ATCATGAGTGA
Response: label 1

Query: Determine whether this variant has fraction ligated no lower than 0.002: TCAATATGTGA
Response: label 0

Query: Determine whether this variant has fraction ligated no lower than 0.002: ATCAAATGGGT A28G G35A T37G A40T
Response: label 0

Query: Determine whether this variant has fraction ligated no lower than 0.002: TCAGTGATTGA T23A
Response: label 1

Query: Determine whether this variant has fraction ligated no lower than 0.002: TCAGATTGTGA T23A
Response: label 0

Query: Determine whether this variant has fraction ligated no lower than 0.002: ATCGATGAGTG
Response: label 1

Query: Determine whether this variant has fraction ligated no lower than 0.002: TCGAGGATGTG A29T
Response: label 1

Query: Determine whether this variant has fraction ligated no lower than 0.002: TCAGATGTGTG T23A
Response: label 1

Query: Determine whether this variant has fraction ligated no lower than 0.002: TCAGAGGAGTT T23A G34T T37G
Response: label 0

Query: Determine whether this variant has fraction ligated no lower than 0.002: ATCAAATTTGA A28G
Response: label 1

Query: Determine whether this variant has fraction ligated no lower than 0.002: ATAGGATGTGA A28T A29G
Response: label 1

Query: Determine whether this variant has fraction ligated no lower than 0.002: CAGATGATTGA T23A
Response: label 0

Query: Determine whether this variant has fraction ligated no lower than 0.002: CAGATGGATGA
Response: label 1

Query: Determine whether this variant has fraction ligated no lower than 0.002: ACGATGGATGA
Response: label 1

Query: Determine whether this variant has fraction ligated no lower than 0.002: ATAGATGAGTA G34T
Response: label 1

Query: Determine whether this variant has fraction ligated no lower than 0.002: ATAGTGGATGA
Response: label 1

Query: Determine whether this variant has fraction ligated no lower than 0.002: ATCAAAGGGTT A28G G34T T37G
Response: label 0

Query: Determine whether this variant has fraction ligated no lower than 0.002: TAAAGGATGTA T23A A29T
Response: label 0

Query: Determine whether this variant has fraction ligated no lower than 0.002: ATCAATGGGTT A28G G34A T37G A40G
Response: label 0

Query: Determine whether this variant has fraction ligated no lower than 0.002: ACAGATGAGTT G34T T37G A40G
Response: label 0

Query: Determine whether this variant has fraction ligated no lower than 0.002: TAGATGTGTGA
Response: label 1

Query: Determine whether this variant has fraction ligated no lower than 0.002: TCAAGATGTGA
Response: label 0

Query: Determine whether this variant has fraction ligated no lower than 0.002: TCAATGGAGTG G34T
Response: label 1

Query: Determine whether this variant has fraction ligated no lower than 0.002: AAAAGGATGTG A29T
Response: label 1

Query: Determine whether this variant has fraction ligated no lower than 0.002: TCAGAGATGTA T23A
Response: label 1

Query: Determine whether this variant has fraction ligated no lower than 0.002: AAGATGATTGA
Response: label 1

Query: Determine whether this variant has fraction ligated no lower than 0.002: TGAAGGATGTG A29T
Response: label 1

Query: Determine whether this variant has fraction ligated no lower than 0.002: TCAGAGGAGTT G34T T37G
Response: label 0

Query: Determine whether this variant has fraction ligated no lower than 0.002: TCAAGGATGTA T23A A29T
Response: label 1

Query: Determine whether this variant has fraction ligated no lower than 0.002: TCAGAGGTGTA
Response: label 0

Query: Determine whether this variant has fraction ligated no lower than 0.002: ATCAAAAGTGA A28G
Response: label 1

Query: Determine whether this variant has fraction ligated no lower than 0.002: TCAAGATGTGA T23A
Response: label 0

Query: Determine whether this variant has fraction ligated no lower than 0.002: ACAAGATGTGA A28T A29G
Response: label 1

Query: Determine whether this variant has fraction ligated no lower than 0.002: ATCATGGATGA A28G
Response: label 1

Query: Determine whether this variant has fraction ligated no lower than 0.002: ATCAATGAGTA G34T
Response: label 1

Query: Determine whether this variant has fraction ligated no lower than 0.002: TCAGAGGAGTG T23A G34T
Response: label 1

Query: Determine whether this variant has fraction ligated no lower than 0.002: ATCGATAGTGA
Response: label 1

Query: Determine whether this variant has fraction ligated no lower than 0.002: TCAGGGATGTG A29T
Response: label 1

Query: Determine whether this variant has fraction ligated no lower than 0.002: ATCATGGATGA
Response: label 1

Query: Determine whether this variant has fraction ligated no lower than 0.002: AAGATGGAGTG G34T
Response: label 1

Query: Determine whether this variant has fraction ligated no lower than 0.002: TCAGATGTTGA T23A
Response: label 0

Query: Determine whether this variant has fraction ligated no lower than 0.002: TCGATGGAGTT T23A G34T T37G A40G
Response: label 0

Query: Determine whether this variant has fraction ligated no lower than 0.002: CAGAGATGTGA T23A A29G
Response: label 1

Query: Determine whether this variant has fraction ligated no lower than 0.002: AAGAGGATGTG
Response: label 1

Query: Determine whether this variant has fraction ligated no lower than 0.002: ATCGATGAGTA G34T
Response: label 0

Query: Determine whether this variant has fraction ligated no lower than 0.002: TCAGAGGAGTA G34T
Response: label 1

Query: Determine whether this variant has fraction ligated no lower than 0.002: ATCAGGTGTGA A28G
Response: label 1

Query: Determine whether this variant has fraction ligated no lower than 0.002: TCAGATGAGTT T23A G34T T37G A40G
Response: label 1

Query: Determine whether this variant has fraction ligated no lower than 0.002: CAGATGATGTG
Response: label 1

Query: Determine whether this variant has fraction ligated no lower than 0.002: CAAAGGTGTGA A29T
Response: label 0

Query: Determine whether this variant has fraction ligated no lower than 0.002: ATAGAGGAGTT G34T T37G A40G
Response: label 0

Query: Determine whether this variant has fraction ligated no lower than 0.002: TCAATGTGTGA
Response: label 1

Query: Determine whether this variant has fraction ligated no lower than 0.002: ATCAAAGAGTG A28G G34T
Response: label 1

Query: Determine whether this variant has fraction ligated no lower than 0.002: ATCATGGTTGA
Response: label 1

Query: Determine whether this variant has fraction ligated no lower than 0.002: AAGAGGTGTGA A29T
Response: label 0

Query: Determine whether this variant has fraction ligated no lower than 0.002: AAAAGGATGTA A29T
Response: label 1

Query: Determine whether this variant has fraction ligated no lower than 0.002: ATCAAGATGTA A28G
Response: label 1

Query: Determine whether this variant has fraction ligated no lower than 0.002: ATCAATATGTA
Response: label 1

Query: Determine whether this variant has fraction ligated no lower than 0.002: ATCAAATGTGA A28G
Response: label 1

Query: Determine whether this variant has fraction ligated no lower than 0.002: ATCAAGATGTA
Response: label 1

Query: Determine whether this variant has fraction ligated no lower than 0.002: ATCAATGGGTT G34T T37G A40G
Response: label 1

Query: Determine whether this variant has fraction ligated no lower than 0.002: TAGAGATGTGA T23A A28T A29G
Response: label 1

Query: Determine whether this variant has fraction ligated no lower than 0.002: ATCAAAGAGTT A28G G34T T37G
Response: label 0

Query: Determine whether this variant has fraction ligated no lower than 0.002: TAGATGGTGTG T23A
Response: label 1

Query: Determine whether this variant has fraction ligated no lower than 0.002: ATGATGGTGTA
Response: label 1

Query: Determine whether this variant has fraction ligated no lower than 0.002: ATGAGGATGTG
Response: label 1

Query: Determine whether this variant has fraction ligated no lower than 0.002: ACAGTGGAGTG G34T
Response: label 1

Query: Determine whether this variant has fraction ligated no lower than 0.002: ATCAAGAGTGA
Response: label 1

Query: Determine whether this variant has fraction ligated no lower than 0.002: TAAAGGAGTGA A29T
Response: label 0

Query: Determine whether this variant has fraction ligated no lower than 0.002: TGAAGGTGTGA T23A A29T
Response: label 1

Query: Determine whether this variant has fraction ligated no lower than 0.002: ACAGATGGGTG
Response: label 1

Query: Determine whether this variant has fraction ligated no lower than 0.002: TCAGGATGTGA A28T A29G
Response: label 1

Query: Determine whether this variant has fraction ligated no lower than 0.002: TCAGTGGTTGA T23A
Response: label 1

Query: Determine whether this variant has fraction ligated no lower than 0.002: ATCAATGGGTG G34A
Response: label 1

Query: Determine whether this variant has fraction ligated no lower than 0.002: ATCAATGGTGA A28G
Response: label 1

Query: Determine whether this variant has fraction ligated no lower than 0.002: ATCAATGGGTG A28G G34A
Response: label 1

Query: Determine whether this variant has fraction ligated no lower than 0.002: ATCGAGGAGTA
Response: label 1

Query: Determine whether this variant has fraction ligated no lower than 0.002: ATAGGGATTGA A29T
Response: label 1

Query: Determine whether this variant has fraction ligated no lower than 0.002: TCAATGGAGTT G34T T37G A40G
Response: label 0

Query: Determine whether this variant has fraction ligated no lower than 0.002: ACAGAGGAGTG
Response: label 1

Query: Determine whether this variant has fraction ligated no lower than 0.002: ATCGTGGTTGA
Response: label 0

Query: Determine whether this variant has fraction ligated no lower than 0.002: TCAATGATGTG T23A
Response: label 1

Query: Determine whether this variant has fraction ligated no lower than 0.002: ATCAATGAGTA A28G
Response: label 1
